Hello, the source for this data is the supplement of paper PMC8253809, in case you need it.

Test system: DIPGX29 (H3.3 K27M diffuse intrinsic pontine glioma line)
Test: growth inhibition (% activity, log2 RLU normalised to DMSO / staurosporine); higher = more growth inhibition
Conditions: 33 µM
Please respond with reported growth inhibition for every item in the list.
Numbers only, in %.

For each entry beneath this line, provide reported growth inhibition.
1. C[C@@H]1C/C=C/C=C/C=C/C=C/[C@H](O[C@@H]2O[C@H](C)[C@@H](O)[C@H](N)[C@@H]2O)C[C@@H]2O[C@](O)(C[C@@H](O)C[C@H]3O[C@@H]3/C=C/C(=O)O1)C[C@H](O)[C@H]2C(=O)O
2. CC(=O)O[C@@]12CO[C@@H]1C[C@H](O)[C@@]1(C)C(=O)[C@H](O)C3=C(C)[C@@H](OC(=O)[C@H](O)[C@@H](NC(=O)OC(C)(C)C)c4ccccc4)C[C@@](O)([C@@H](OC(=O)c4ccccc4)[C@H]21)C3(C)C

OUTPUT:
1: 1.2; 2: 8.91

For each entry beneath this line, provide reported growth inhibition.
1. COc1ccccc1OCC(O)COC(N)=O (configuration not stated)
2. Cc1ccc(C(=O)c2ccc(CC(=O)O)n2C)cc1
3. CCOc1ccc2nc3cc(N)ccc3c(N)c2c1
4. CCc1cc2c(cc1CC)CC(NC[C@H](O)c1ccc(O)c3[nH]c(=O)ccc13)C2
5. CN1CCN(CCCN2c3ccccc3Sc3ccc(C(F)(F)F)cc32)CC1
6. CN(C)C(=O)C(CCN1CCC(O)(c2ccc(Cl)cc2)CC1)(c1ccccc1)c1ccccc1

OUTPUT:
-0.505
-0.189
-0.121
-0.957
14.9
11.2

For each entry beneath this line, provide reported growth inhibition.
1. CC1(C)O[C@@H]2C[C@H]3[C@@H]4CCC5=CC(=O)C=C[C@]5(C)[C@@]4(F)[C@@H](O)C[C@]3(C)[C@]2(C(=O)CO)O1
2. COC(=O)N[C@H](C(=O)N[C@@H](Cc1ccccc1)[C@@H](O)CN(Cc1ccc(-c2ccccn2)cc1)NC(=O)[C@@H](NC(=O)OC)C(C)(C)C)C(C)(C)C
3. CN(C)C/C=C/C(=O)Nc1cc2c(Nc3ccc(F)c(Cl)c3)ncnc2cc1O[C@H]1CCOC1
4. CCOc1nc2cccc(C(=O)O)c2n1Cc1ccc(-c2ccccc2-c2noc(=O)[nH]2)cc1
5. CC(CCc1ccc(O)cc1)NCC(O)c1ccc(O)cc1 (configuration not stated)

OUTPUT:
1.92
-2.79
21.1
-0.219
-1.35

For each entry beneath this line, provide reported growth inhibition.
1. CC(=O)[C@H]1CC[C@H]2[C@@H]3C=CC4=CC(=O)CC[C@@]4(C)[C@@H]3CC[C@]12C
2. Cc1cnc(NC(=O)C2=C(O)c3ccccc3S(=O)(=O)N2C)s1
3. COC(=O)C1=C(C)NC(C)=C(C(=O)OC)C1c1ccccc1[N+](=O)[O-]
4. Cn1ccnc1S
5. CC(=O)O[C@]1(C(C)=O)CC[C@H]2[C@@H]3C[C@H](C)C4=CC(=O)CC[C@]4(C)[C@H]3CC[C@@]21C
6. CNC(=O)c1ccccc1Sc1ccc2c(/C=C/c3ccccn3)n[nH]c2c1
7. O=S(=O)(O)CCS

OUTPUT:
1: -0.886; 2: -1.57; 3: -2.53; 4: -2.03; 5: -3.25; 6: 12.6; 7: -1.06

For each entry beneath this line, provide reported growth inhibition.
1. CN1C[C@@H]2C[C@H]1CN2c1cc2c(cc1F)c(=O)c(C(=O)O)cn2C1CC1
2. CCc1nc(N)nc(N)c1-c1ccc(Cl)cc1
3. CCC(=O)O[C@]1(C(=O)CCl)[C@@H](C)C[C@H]2[C@@H]3C[C@H](F)C4=CC(=O)C=C[C@]4(C)[C@@]3(F)[C@@H](O)C[C@@]21C
4. COc1c2ccoc2cc2oc(=O)ccc12
5. C#C[C@]1(O)CC[C@H]2[C@@H]3CCC4=CC(=O)CC[C@@H]4[C@H]3CC[C@@]21C
6. CCCCNc1ccc(C(=O)OCCN(C)C)cc1
7. Cc1oncc1C(=O)Nc1ccc(C(F)(F)F)cc1

OUTPUT:
1: 2.67; 2: 16.1; 3: 3.65; 4: 0.175; 5: -0.22; 6: -1.31; 7: 12

For each entry beneath this line, provide reported growth inhibition.
1. CN1c2cc(O)c(N=NC(N)=O)cc2CC1S(=O)(=O)O (configuration not stated)
2. NCC1OC(OC2C(N)CC(N)C(OC3OC(CO)C(O)C(N)C3O)C2O)C(N)C(O)C1O (configuration not stated)
3. CCOC(=O)O[C@]1(C(=O)OCCl)CC[C@H]2[C@@H]3CCC4=CC(=O)C=C[C@]4(C)[C@H]3[C@@H](O)C[C@@]21C
4. CC1=NN(c2ccccc2)C(=O)C1
5. CN1CCC(=C2c3ccccc3C=Cc3ccccc32)CC1

OUTPUT:
1: -0.566; 2: -1.38; 3: 1.63; 4: -3.36; 5: 1.58

For each entry beneath this line, provide reported growth inhibition.
1. NS(=O)(=O)c1cc2c(cc1C(F)(F)F)NC(Cc1ccccc1)NS2(=O)=O (configuration not stated)
2. Cc1c(N(C)C)c(=O)n(-c2ccccc2)n1C
3. NCCS(=O)(=O)O
4. O=c1[nH]c(=O)n([C@H]2C[C@H](O)[C@@H](CO)O2)cc1F

OUTPUT:
1. -1.42
2. -0.911
3. 0.304
4. 18.6

According to the records, this compound "COc1ccc2[nH]cc(CCNC(C)=O)c2c1" displays growth inhibition of -2.35

====

Tested on: DIPGX29
Test: growth inhibition (% activity, log2 RLU normalised to DMSO / staurosporine); higher = more growth inhibition
Conditions: 33 µM
endpoint_name: growth inhibition (%)
One number for each entry, in %.

O=S(=O)(O)c1cc(O)ccc1O    -4.18
S=c1[nH]cnc2nc[nH]c12    20.1
CN1CCCC(n2nc(Cc3ccc(Cl)cc3)c3ccccc3c2=O)CC1 (configuration not stated)    3.68
C=CC[C@@H]1/C=C(\C)C[C@H](C)C[C@H](OC)[C@H]2O[C@@](O)(C(=O)C(=O)N3CCCC[C@H]3C(=O)O[C@H](/C(C)=C/[C@@H]3CC[C@@H](O)[C@H](OC)C3)[C@H](C)[C@@H](O)CC1=O)[C@H](C)C[C@@H]2OC    1.19
COCCOC(=O)C1=C(C)NC(C)=C(C(=O)OC/C=C/c2ccccc2)C1c1cccc([N+](=O)[O-])c1 (configuration not stated)    2.85

For each entry beneath this line, provide reported growth inhibition.
1. COc1c2occc2cc2ccc(=O)oc12
2. O=C1O[C@H]([C@@H](O)CO)C(O)=C1O
3. [O-][n+]1cccc(CO)c1
4. CN(C)CC/C=C1/c2ccccc2Sc2ccc(Cl)cc21
5. CC(C)(C(=O)O)c1ccc(C(O)CCCN2CCC(C(O)(c3ccccc3)c3ccccc3)CC2)cc1 (configuration not stated)
6. C=C1/C(=C\C=C2/CCC[C@]3(C)[C@@H]([C@H](C)/C=C/[C@H](C)C(C)C)CC[C@@H]23)C[C@@H](O)C[C@@H]1O
7. CC(=O)NC[C@H]1CN(c2ccc(N3CCOCC3)c(F)c2)C(=O)O1
8. COc1cc(/C=C/C(=O)CC(=O)/C=C/c2ccc(O)c(OC)c2)ccc1O

OUTPUT:
-0.546
-0.099
-0.666
-0.186
-0.186
0.433
0.341
-0.948

For each entry beneath this line, provide reported growth inhibition.
1. CC(C)OC(=O)C(C(=O)OC(C)C)=C1SC=CS1
2. N=C(N)c1ccc2cc(OC(=O)c3ccc(N=C(N)N)cc3)ccc2c1
3. O=C(O)c1cn(C2CC2)c2cc(N3CCNCC3)c(F)cc2c1=O
4. OCC(O)CN1CCN(c2ccccc2)CC1 (configuration not stated)

OUTPUT:
1. 12.7
2. -0.193
3. -1.96
4. -2.77

====

Tested on: DIPGX37 (H3.3 K27M diffuse intrinsic pontine glioma line)
Test: growth inhibition (% activity, log2 RLU normalised to DMSO / staurosporine); higher = more growth inhibition
Settings: 33 µM
Please respond with reported growth inhibition for every item in the list.
Numbers only, in %.

// worked examples, growth inhibition included
CCN(CC)C(=O)/C(C#N)=C/c1cc(O)c(O)c([N+](=O)[O-])c1    1.83
CN(C)CCN(Cc1cccs1)c1ccccn1    3.64
CN1C(C(=O)Nc2ccccn2)=C(O)c2ccccc2S1(=O)=O    1.01
CCOC(=O)n1ccn(C)c1=S    2.04
O=C(O)C[C@H](O)C[C@H](O)/C=C/c1c(C2CC2)nc2ccccc2c1-c1ccc(F)cc1    -2.02

For each entry beneath this line, provide reported growth inhibition.
1. O=C(O)c1cc(/N=N/c2ccc(S(=O)(=O)Nc3ccccn3)cc2)ccc1O
2. COc1cc(C(=O)NS(=O)(=O)c2ccccc2C)ccc1Cc1cn(C)c2ccc(NC(=O)OC3CCCC3)cc12
3. CCN1CCN(C(=O)N[C@@H](C(=O)N[C@@H]2C(=O)N3[C@@H]2SC(C)(C)[C@@H]3C(=O)O)c2ccccc2)C(=O)C1=O
4. O=c1[nH]c(=O)n([C@H]2C[C@H](O)[C@@H](CO)O2)cc1C(F)(F)F
5. CCOC(=O)[C@H](CCc1ccccc1)N[C@H]1CS[C@H](c2cccs2)CN(CC(=O)O)C1=O

OUTPUT:
1: -1.79; 2: 1.77; 3: 0.221; 4: 0.535; 5: 0.457
